// data source = PubChem BioAssay (NCI)

Examples of molecules with documented TGI follow.
Test system: HCC-2998 colon
Assay notes: NCI tumour cell line growth inhibition, 48 h

Completed entries (count: 3):
CCCCCCCCCCCCNC(=O)N[C@H](C(=O)N[C@H]1/C=C/OCCNC(=O)/C=C/[C@H](C(C)C)NC1=O)C(C)C | > 60.1 µM
C/C=C/C(C/C=C(\C)CO[Si](C)(C)C(C)(C)C)O[Si](C)(C)C(C)(C)C (centres undefined) | > 100 µM
CC(=O)O[C@@H]1[C@H]2O[C@H]2[C@H]2O[C@@]2(COC(=O)c2ccccc2)[C@H]1OC(C)=O | > 100 µM

# input Param item = OC1(c2ccccc2)c2ccccc2N(c2ccccc2)c2ccc(Cl)cc21 (centres undefined) ; retrieve measured TGI.
# output 0.795 µM
